FYI, the data here is from patent US20230172831A1.

- Method summary: Solubility of oily component solid at 25° C. and crystallization test (polyethylene)
- Assay type: physicochemical
- Particulars: Polyethylene:silicone 1:9, solidified at 25° C. for 2 days; 1/4 cone, after 5 seconds, average of five; larger value means softer
Property: average penetration score
I'd appreciate a reply containing only the number, no unit.

# annotated cases, reported average penetration score shown
Compound	Property	Recorded result
C[Si]1(C)O[Si](C)(C)O[Si](C)(C)O[Si](C)(C)O[Si](C)(C)O[Si](C)(C)O1	average penetration score	21.0
C[Si](C)(C)O[Si](C)(C)O[Si](C)(C)C [KF-96L-1cs, octamethyltrisiloxane]	average penetration score	30.7
C[Si]1(C)O[Si](C)(C)O[Si](C)(C)O[Si](C)(C)O[Si](C)(C)O1	average penetration score	22.4

Moving on to another compound below.
Which average penetration score value is on record for CC[Si](C)(O[Si](C)(C)C)O[Si](C)(CC)O[Si](C)(C)C (stereo not shown) ?
33.7

###

# reported average penetration score; entries follow
- Method summary: Solubility of oily component solid at 25° C. and crystallization test (stearyl alcohol)
- Assay type: physicochemical
- Particulars: Stearyl alcohol:silicone 1:9, solidified at 25° C. for 2 days; 1/4 cone, after 5 seconds, average of five; larger value means softer
I'd appreciate a reply containing only the number, no unit.

Compound	Property	Recorded result
C[Si]1(C)O[Si](C)(C)O[Si](C)(C)O[Si](C)(C)O[Si](C)(C)O1 [D5:KF-995, decamethylpentasiloxane]	average penetration score	34.4
CC[Si](C)(O[Si](C)(C)C)O[Si](C)(CC)O[Si](C)(C)C (stereo not shown) [Sx of Production Example 1]	average penetration score	49.5
C[Si](C)(C)O[Si](C)(C)O[Si](C)(C)C [KF-96L-1cs, octamethyltrisiloxane]	average penetration score	31.7

Moving on to another compound below.
Which average penetration score value is on record for C[Si]1(C)O[Si](C)(C)O[Si](C)(C)O[Si](C)(C)O[Si](C)(C)O[Si](C)(C)O1 [Example D6, dodecamethylhexasiloxane] ?
31.5
